Molecular target: rat TRPV1 (Rattus norvegicus, UniProt O35433)
Sequence (O35433 whole entry): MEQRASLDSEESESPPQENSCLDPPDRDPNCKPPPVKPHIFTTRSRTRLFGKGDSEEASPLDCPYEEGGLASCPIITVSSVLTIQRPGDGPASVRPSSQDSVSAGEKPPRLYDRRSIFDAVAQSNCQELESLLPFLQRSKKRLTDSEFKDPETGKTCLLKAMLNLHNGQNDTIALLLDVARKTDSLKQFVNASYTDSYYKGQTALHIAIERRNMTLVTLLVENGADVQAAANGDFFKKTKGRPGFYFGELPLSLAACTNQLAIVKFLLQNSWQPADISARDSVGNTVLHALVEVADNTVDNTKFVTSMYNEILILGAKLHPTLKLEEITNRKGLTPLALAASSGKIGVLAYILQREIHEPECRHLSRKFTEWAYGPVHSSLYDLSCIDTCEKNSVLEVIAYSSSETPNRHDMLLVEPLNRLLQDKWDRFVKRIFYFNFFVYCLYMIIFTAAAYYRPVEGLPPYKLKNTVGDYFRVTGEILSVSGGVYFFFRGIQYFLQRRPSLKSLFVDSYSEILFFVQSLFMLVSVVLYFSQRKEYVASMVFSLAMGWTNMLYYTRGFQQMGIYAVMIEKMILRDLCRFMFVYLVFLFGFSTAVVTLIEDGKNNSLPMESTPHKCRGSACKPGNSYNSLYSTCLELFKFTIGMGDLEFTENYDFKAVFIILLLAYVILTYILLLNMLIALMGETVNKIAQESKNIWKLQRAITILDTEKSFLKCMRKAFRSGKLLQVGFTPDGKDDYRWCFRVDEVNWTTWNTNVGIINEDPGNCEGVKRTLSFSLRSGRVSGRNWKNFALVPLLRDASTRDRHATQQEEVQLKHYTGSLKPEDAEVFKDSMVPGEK
Assay: Vanilloid-induced 45Ca2+ uptake in TRPV1/HaCaT cells
Assay type: cell-based
Settings: TRPV1/HaCaT cells, 2 μM CAPS; up to highest concentration 4 mM
measurement.type: Effect on CAPS-induced 45Ca2+ uptake (in words)

compound | result
[La+3] [La^3+] | little or no effect
[Mg+2] [Mg^2+] | little or no effect
[Mn+2] [Mn^2+] | little or no effect

---

Biological target: rat TRPV1 (Rattus norvegicus, UniProt O35433)
Experiment: Vanilloid-induced 45Ca2+ uptake in TRPV1/HaCaT cells
Type: cell-based
measurement.type: IC50 (µM)

compound | unit.info | result.number
CN(C)CCC=C1c2ccccc2CCc2ccccc21 [AMI, Amitriptyline, reference compound] | µM | 20

---

Target: UniProtKB O35433
Assay: Vanilloid-induced 45Ca2+ uptake in TRPV1/HaCaT cells
Assay type: cell-based
Settings: read-out: IC50 of Co2+; in the presence of 0.5 μM CAPS
pIC50: −log10 of the molar value.

entry.smiles | pIC50
[Co+2] | 4.49

---

Target: rat TRPV1 (Rattus norvegicus)
Test: Vanilloid-induced 45Ca2+ uptake in TRPV1/HaCaT cells
Assay type: cell-based
Conditions: read-out: IC50 of Co2+; in the presence of 4 μM CAPS
measurement.type: IC50 (µM)

entry.smiles | result.number
[Co+2] | 15.6

---

As shown below, each of these compounds has a reported IC50 value.
Target: rat TRPV1 E651W mutant (Rattus norvegicus, UniProt O35433, E651W)
Assay: CAPS-evoked 45Ca2+ influx in cells expressing the TRPV1 E651W point mutant
Conditions: read-out: IC50, 45Ca2+ influx, 4 μM CAPS
measurement.type: IC50 (µM)

compound | study.system | result.number
N.N.N.N.N.N.N.N.N.N.N.N.N.N.[Cl-].[Cl-].[Cl-].[Cl-].[Cl-].[Cl-].[O-2].[O-2].[Ru+3].[Ru+3].[Ru+4] [RuRed, Ruthenium Red, reference compound] | rat TRPV1 E651W mutant (Rattus norvegicus, UniProt O35433, E651W) | 0.94
[Co+2] | rat TRPV1 E651W mutant (Rattus norvegicus, UniProt O35433, E651W) | 15.3

---

Molecular target: rat TRPV1 (Rattus norvegicus, UniProt O35433)
Test: Vanilloid-induced 45Ca2+ uptake in TRPV1/HaCaT cells
Format: cell-based
Conditions: read-out: IC50 of Co2+; in the presence of 125 μM cold Ca2+
measurement.type: IC50 (µM)

entry.smiles | study.system | measurement.type | unit.info | result.number
[Co+2] | rat TRPV1 (Rattus norvegicus, UniProt O35433) | IC50 | µM | 189

---

Target: rat TRPV1 Y627W mutant (Rattus norvegicus, UniProt O35433, Y627W)
Sequence (O35433 whole entry Y627W): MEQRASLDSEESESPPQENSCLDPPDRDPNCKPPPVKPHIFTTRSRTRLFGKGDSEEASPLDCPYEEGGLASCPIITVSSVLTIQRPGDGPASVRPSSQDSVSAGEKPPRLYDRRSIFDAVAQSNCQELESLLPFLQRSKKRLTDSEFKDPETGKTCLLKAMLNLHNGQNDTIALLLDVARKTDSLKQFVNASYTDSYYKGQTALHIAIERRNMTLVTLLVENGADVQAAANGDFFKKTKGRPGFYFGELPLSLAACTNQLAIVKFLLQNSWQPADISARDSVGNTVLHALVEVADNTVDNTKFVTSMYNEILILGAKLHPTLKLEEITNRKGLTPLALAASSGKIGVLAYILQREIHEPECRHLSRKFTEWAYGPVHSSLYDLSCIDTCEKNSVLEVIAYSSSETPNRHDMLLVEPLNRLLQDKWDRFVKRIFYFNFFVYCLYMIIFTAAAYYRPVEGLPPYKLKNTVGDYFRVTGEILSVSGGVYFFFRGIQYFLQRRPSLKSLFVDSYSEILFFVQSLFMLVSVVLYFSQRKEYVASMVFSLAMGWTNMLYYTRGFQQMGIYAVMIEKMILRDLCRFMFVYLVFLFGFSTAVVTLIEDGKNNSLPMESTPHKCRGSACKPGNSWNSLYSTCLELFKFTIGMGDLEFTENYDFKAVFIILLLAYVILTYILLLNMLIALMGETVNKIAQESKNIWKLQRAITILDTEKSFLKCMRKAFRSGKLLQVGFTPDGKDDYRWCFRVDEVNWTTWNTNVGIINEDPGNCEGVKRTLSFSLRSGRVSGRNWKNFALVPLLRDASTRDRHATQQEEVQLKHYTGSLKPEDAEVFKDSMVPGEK
Test: CAPS-evoked 45Ca2+ influx in cells expressing the TRPV1 Y627W point mutant
Settings: read-out: IC50, 45Ca2+ influx, 4 μM CAPS
pIC50: −log10 of the molar value.
As shown below, each of these compounds has a reported pIC50 value.

compound | study.system | pIC50
[Co+2] | rat TRPV1 Y627W mutant (Rattus norvegicus, UniProt O35433, Y627W) | 4.73
N.N.N.N.N.N.N.N.N.N.N.N.N.N.[Cl-].[Cl-].[Cl-].[Cl-].[Cl-].[Cl-].[O-2].[O-2].[Ru+3].[Ru+3].[Ru+4] [RuRed, Ruthenium Red, reference compound] | rat TRPV1 Y627W mutant (Rattus norvegicus, UniProt O35433, Y627W) | 6.59
